OBSERVED PROPERTY: IC50 (µM)
Reply numerically in µM, unit not repeated.

In: Under Cytochrome P450 3A4 (Homo sapiens), report IC50 for O=C([C@@H](c1ccc(Cl)cc1)c1cccnc1)N1CCN(c2ccc(C(F)(F)F)cc2)CC1 [EPL-BS1246 (UDO)]
Out: 20

* * *

Answer each item with its documented pKd.
Target: Lanosterol 14-alpha demethylase (Homo sapiens)
Sequence (Q16850 whole entry): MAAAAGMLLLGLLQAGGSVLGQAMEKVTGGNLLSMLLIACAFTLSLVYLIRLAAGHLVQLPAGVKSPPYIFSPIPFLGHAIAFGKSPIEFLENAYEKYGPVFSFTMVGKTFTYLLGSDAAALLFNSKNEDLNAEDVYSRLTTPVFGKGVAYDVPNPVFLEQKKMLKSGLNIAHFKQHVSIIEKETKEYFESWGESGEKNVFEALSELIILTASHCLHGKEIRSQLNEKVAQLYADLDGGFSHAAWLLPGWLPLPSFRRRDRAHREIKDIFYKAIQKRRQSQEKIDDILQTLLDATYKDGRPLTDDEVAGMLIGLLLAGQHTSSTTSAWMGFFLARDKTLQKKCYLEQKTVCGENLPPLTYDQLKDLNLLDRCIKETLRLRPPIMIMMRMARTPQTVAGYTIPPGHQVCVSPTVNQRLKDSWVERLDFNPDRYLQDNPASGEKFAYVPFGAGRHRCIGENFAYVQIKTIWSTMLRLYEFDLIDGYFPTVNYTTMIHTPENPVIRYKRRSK
In textbook form, pKd equals minus log to base ten of the concentration in mol/L.

In: Specify measured pKd for FC(F)(F)c1ccc(N(c2cccnc2)C2CCN(c3ccc(C(F)(F)F)cn3)CC2)cc1 .
Out: 7.59

In: Specify measured pKd for O=C([C@@H](c1ccc(Cl)cc1)c1cccnc1)N1CCN(c2ccc(C(F)(F)F)cc2)CC1 .
Out: 7.16

* * *

IC50 tested on Cytochrome P450 1A2 (Homo sapiens, UniProt P05177): recorded values
Sequence (P05177 whole entry): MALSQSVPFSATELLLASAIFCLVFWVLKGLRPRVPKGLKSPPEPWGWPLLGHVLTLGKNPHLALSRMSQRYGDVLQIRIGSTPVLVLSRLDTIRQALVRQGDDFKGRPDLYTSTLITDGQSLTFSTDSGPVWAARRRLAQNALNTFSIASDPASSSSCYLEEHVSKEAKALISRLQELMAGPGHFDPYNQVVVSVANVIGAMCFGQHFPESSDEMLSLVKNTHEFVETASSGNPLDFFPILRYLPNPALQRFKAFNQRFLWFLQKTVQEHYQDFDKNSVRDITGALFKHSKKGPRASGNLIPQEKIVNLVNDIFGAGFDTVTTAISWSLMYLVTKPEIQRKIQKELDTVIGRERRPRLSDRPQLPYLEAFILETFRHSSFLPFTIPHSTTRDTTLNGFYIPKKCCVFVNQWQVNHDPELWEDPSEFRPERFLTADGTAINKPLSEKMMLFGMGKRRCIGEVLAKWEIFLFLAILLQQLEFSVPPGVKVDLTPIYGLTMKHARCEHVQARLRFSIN

In: Specify measured IC50 for O=C([C@@H](c1ccc(Cl)cc1)c1cccnc1)N1CCN(c2ccc(C(F)(F)F)cc2)CC1 .
Out: > 20 µM

In: Specify measured IC50 for FC(F)(F)c1ccc(N(c2cccnc2)C2CCN(c3ccc(C(F)(F)F)cn3)CC2)cc1 .
Out: > 20 µM

* * *

Answer each item with its documented Kd.
Target: Sterol 14-alpha demethylase (Trypanosoma cruzi (strain CL Brener))
Sequence (Q7Z1V1 whole entry): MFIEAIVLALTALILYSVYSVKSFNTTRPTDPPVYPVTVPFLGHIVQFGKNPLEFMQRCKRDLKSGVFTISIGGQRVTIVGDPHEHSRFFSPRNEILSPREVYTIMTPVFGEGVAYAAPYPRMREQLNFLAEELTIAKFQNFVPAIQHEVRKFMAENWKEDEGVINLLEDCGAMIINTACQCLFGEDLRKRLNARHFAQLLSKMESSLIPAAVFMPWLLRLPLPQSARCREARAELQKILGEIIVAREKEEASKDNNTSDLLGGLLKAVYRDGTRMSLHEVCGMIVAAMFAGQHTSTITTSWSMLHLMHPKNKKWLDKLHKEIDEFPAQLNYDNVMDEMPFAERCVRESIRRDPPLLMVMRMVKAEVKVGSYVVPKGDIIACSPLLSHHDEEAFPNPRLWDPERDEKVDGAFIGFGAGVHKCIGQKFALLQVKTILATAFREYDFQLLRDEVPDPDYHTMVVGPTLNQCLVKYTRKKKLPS
Experiment: CYP51 Inhibition Assay
Details: pH 7.4; 37 °C
Could you give the number and then its unit, please?

In: Specify measured Kd for O=C([C@@H](c1ccc(Cl)cc1)c1cccnc1)N1CCN(c2ccc(C(F)(F)F)cc2)CC1 [EPL-BS1246 (UDO)] .
Out: 19 nM

In: Specify measured Kd for O=C(N[C@@H](Cn1ccnc1)c1ccc(Cl)cc1Cl)c1ccc(-c2nnc(-c3ccccc3)o2)cc1 [VNI] .
Out: 15 nM

In: Specify measured Kd for FC(F)(F)c1ccc(N(c2cccnc2)C2CCN(c3ccc(C(F)(F)F)cn3)CC2)cc1 [EPL-BS0967 (UDD)] .
Out: 32 nM
